# tgt: Recombinant human His-tagged Trim24-PHD-bromodomain (Homo sapiens, UniProt O15164)
# Construct: Recombinant human His-tagged Trim24-PHD-bromodomain (produced in-house)
# Sequence (O15164 824-1006 limits assumed): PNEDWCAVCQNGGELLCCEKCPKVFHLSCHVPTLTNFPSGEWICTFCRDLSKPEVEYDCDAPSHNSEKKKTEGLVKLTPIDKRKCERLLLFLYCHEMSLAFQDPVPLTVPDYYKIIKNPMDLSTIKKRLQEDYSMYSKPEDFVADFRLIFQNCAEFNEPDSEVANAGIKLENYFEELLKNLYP
# measurement notes: Trim24 AlphaScreen Assay
# experimental setup: 5 nM Trim24 protein, 15 nM biotinylated H3K23ac (1-33aa) peptide
Known IC50 of a selection of compounds

>  <mol>
Cc1nc(S(=O)(=O)Nc2cc3c(cc2Oc2cccc(OCC(C)C)c2)n(C)c(=O)n3C)cn1C

>  <result>
10 to 100 nM

$$$$

GET /value?item= CCCOc1cc(OCCCCCCN)cc(Oc2cc3c(cc2NS(=O)(=O)C2CC2)n(C)c(=O)n3C)c1 &field=IC50 returns 10 to 100 nM

The compound identified as CCCOc1cc(C#N)cc(Oc2cc3c(cc2NS(=O)(=O)c2cn(C)c(C)n2)n(C)c(=O)n3C)c1 registered its IC50 at 10 to 100 nM

Form: compound = CCOc1cccc(Oc2cc3c(cc2NS(=O)(=O)c2cn(C)c(C)n2)n(C)c(=O)n3C)c1 ; IC50 = 100 to 1000 nM

compound CCCOc1ccc(F)c(Oc2cc3c(cc2NS(=O)(=O)c2cccnc2)n(C)c(=O)n3C)c1 , IC50 observed: 10 to 100 nM

Lab book: IC50 of CCCOc1cc(OCCCCNC)cc(Oc2cc3c(cc2NS(=O)(=O)c2ccc(OC)c(OC)c2)n(C)c(=O)n3C)c1 noted as 10 to 100 nM

Query CCCOc1ccc(F)c(Oc2cc3c(cc2NS(=O)(=O)c2cn(C)cn2)n(C)c(=O)n3C)c1 yields IC50 of > 1000 nM

----------
Items are presented alongside their recorded pIC50.
# tgt: Recombinant human His-tagged Trim24-PHD-bromodomain (Homo sapiens, UniProt O15164)
# Construct: Recombinant human His-tagged Trim24-PHD-bromodomain (produced in-house); made in house
# measurement notes: Trim24 AlphaScreen Assay
# Format: binding
# experimental setup: 5 nM Trim24 protein, 15 nM biotinylated H3K23ac (1-33aa) peptide
pIC50: −log10 of the molar value.

>  <compound>
CCOc1cc(OCC(C)C)cc(Oc2cc3c(cc2NS(=O)(=O)c2cn(C)cn2)n(C)c(=O)n3C)c1

>  <tgt>
Recombinant human His-tagged Trim24-PHD-bromodomain (Homo sapiens, UniProt O15164)

>  <pIC50>
7.00 to 8.00

$$$$
>  <compound>
CCCOc1cccc(Oc2cc3c(cc2NS(=O)(=O)c2cccc4c2OCCO4)n(C)c(=O)n3C)c1

>  <tgt>
Recombinant human His-tagged Trim24-PHD-bromodomain (Homo sapiens, UniProt O15164)

>  <pIC50>
6.00 to 7.00

$$$$
>  <compound>
CCCOc1cc(OCCCC[N+](C)(C)C)cc(Oc2cc3c(cc2NS(=O)(=O)c2ccc(OC)c(OC)c2)n(C)c(=O)n3C)c1 [Example 254, 2,2,2-trifluoroacetate]

>  <tgt>
Recombinant human His-tagged Trim24-PHD-bromodomain (Homo sapiens, UniProt O15164)

>  <pIC50>
8.00 to 9.00

$$$$
>  <compound>
COCCS(=O)(=O)Nc1cc2c(cc1Oc1cccc(OCc3ccccc3)c1)n(C)c(=O)n2C

>  <tgt>
Recombinant human His-tagged Trim24-PHD-bromodomain (Homo sapiens, UniProt O15164)

>  <pIC50>
< 6.00

$$$$

Measured pIC50 for this entry CN(C)CCCCOc1cccc(Oc2cc3c(cc2NS(=O)(=O)c2cn(C)cn2)n(C)c(=O)n3C)c1 [Example 9, 2,2,2-trifluoroacetate] on Recombinant human His-tagged Trim24-PHD-bromodomain (Homo sapiens, UniProt O15164): < 6.00

Form field pIC50 for item Cn1c(=O)n(C)c2cc(Oc3cccc(OCc4ccccc4)c3)c(NS(=O)(=O)c3c[nH]cn3)cc21 on Recombinant human His-tagged Trim24-PHD-bromodomain (Homo sapiens, UniProt O15164): 6.00 to 7.00

Field pIC50 (Recombinant human His-tagged Trim24-PHD-bromodomain (Homo sapiens, UniProt O15164)), entry Cc1ccccc1S(=O)(=O)Nc1cc2c(cc1Oc1cccc(OCc3ccccc3)c1)n(C)c(=O)n2C : < 6.00

Query Cn1cnc(S(=O)(=O)Nc2cc3c(cc2Oc2cccc(OCC(F)(F)F)c2)n(C)c(=O)n3C)c1 on Recombinant human His-tagged Trim24-PHD-bromodomain (Homo sapiens, UniProt O15164); pIC50 returned: 7.00 to 8.00

The reported Recombinant human His-tagged Trim24-PHD-bromodomain (Homo sapiens, UniProt O15164) pIC50 of CCCOc1cc(OCCCOC)cc(Oc2cc3c(cc2NS(=O)(=O)c2cn(C)nc2C)n(C)c(=O)n3C)c1 is 7.00 to 8.00
